assay: NCI Yeast Anticancer Drug Screen. Data for the mlh1 rad18 strain (AID 175); conditions: S. cerevisiae mlh1 rad18 strain growth inhibition; at 50.0 µM
Compounds without any hit were thinned out: in the full panel of roughly 79,000, 15% have a hit. The source made the active and inactive calls. No stated cut-off is given here; in the data, active means growth inhibition above about 70%; inactive means the rest.
Response enum: yes (1) = active, no (0) = inactive

Prompt line: Outcome logged for Cc1ccc(S)c(C(O)(C(F)(F)F)C(F)(F)F)c1 in this assay:
Response line: no (0)

Prompt line: Now consider Cc1ccc2oc(=O)c3c(O)c4cccc(OC5OC(C)C6O[C@@H](c7ccccc7)OC6C5OC5OC(C)C(O)C(O)C5O)c4c4oc(=O)c1c2c34 (stereo partly drawn) and answer again.
Response line: yes (1)

Prompt line: Entry CCOP(=O)(OCC)c1c(C(=O)OC)cc(=O)[nH]c1-c1ccc(C)cc1 please
Response line: no (0)

Prompt line: Can you check CCOC(=O)/C=C/SCCCC(=O)O next?
Response line: no (0)

Prompt line: Next up: Nc1nc(Cl)nc(Nc2ccc(-c3cc4ccc(-c5ncc[nH]5)cc4[nH]3)cc2)n1
Response line: no (0)

Prompt line: Try this compound too: Cc1cc(N(CCC#N)CCC#N)ccc1/C=C1/N=C(c2ccccc2)N(N)C1=O
Response line: no (0)

Prompt line: Follow-up item: CCOC(=O)c1cc2c(nc1N)C(=O)CCC2
Response line: no (0)

Prompt line: Then this compound: c1ccc(-c2cc(-c3cc(-c4ccccc4)n[nH]3)[nH]n2)cc1
Response line: no (0)

====

assay: NCI Yeast Anticancer Drug Screen. Data for the rad50 strain (AID 155);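 further: 0% = growth of vehicle-only cultures of the same strain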; conditions: S. cerevisiae rad50 strain growth inhibition; at 50.0 µM; stronger effect = higher value
This is part of a sample that, as a whole, favours compounds with a hit. Of some 79,000 tested, about 15% had one in any assay. Active and inactive are the calls of the source. Cut-off read from the data, not from the text of the source: active = growth inhibition above about 70%; inactive = the rest. Where a SMILES comes first, the peptide text is derived from it. The star is where a group is joined. Cbz = O=C(OCc1ccccc1)*
In this section we review reported growth inhibition values for a set of molecules.

Observe how each entry below is paired with its result.
CCOC(=O)CCC(NC(=O)C(CCC(=O)OCC)NC(=O)OCc1ccccc1)C(=O)O (stereo not drawn) (tested in a mixture with another compound) (Cbz-Glu(OEt)-Glu(OEt)-OH; configuration not given here); -43.5% (inactive)
CCOC(=O)CCc1nc2ccccc2[nH]1; 0.6% (inactive)
CN=C1Nc2ccc(Cl)cc2C(c2ccccc2)=NN1C; 10% (inactive)

Prompt line: Requested field: growth inhibition. Item: COc1ccc2c(ccc3[nH]c4c(C)cnc(NCCCN(C)C)c4c32)c1
Response line: -16.6% (inactive)

Prompt line: // same read-out, input: CCCCCCCC/C=C\CCCCCCCC(=O)N1CCN(C(=O)CCCCCCC/C=C/CCCCCCCC)C1
Response line: 20.4% (inactive)

Prompt line: Likewise for N#CC(OC(=O)c1cccc(C(=O)OC(C#N)(C(F)(F)F)C(F)(F)F)c1Sc1ccccc1)(C(F)(F)F)C(F)(F)F ?
Response line: 27% (inactive)

Prompt line: Another molecule to check: Cc1[nH]c2ccccc2c1CC1CC(=O)OC1=O (stereo not drawn)
Response line: -8.35% (inactive)

Prompt line: Request: CN(N=O)C(N)=NC(=O)c1ccccc1
Response line: 11.4% (inactive)
